// provenance: patent US8372420B2

Tested on: K. pneumoniae ATCC13883 C238
Test protocol: MIC determination by microtitre broth dilution
Assay type: cell-based
Condition label: K. pneumoniae ATCC13883 C238, wt, Gram−; Mueller Hinton broth, 37° C., 24 h
Endpoint: Minimum Inhibitory Concentrations

Would you please look over these solved cases?
| Compound | Result |
| --- | --- |
| COc1cc([C@@H]2c3cc4c(cc3[C@@H](O[C@@H]3O[C@@H]5CO[C@@H](C)O[C@H]5[C@H](O)[C@H]3O)[C@H]3COC(=O)[C@H]23)OCO4)cc(OC)c1O [etoposide, Etoposide] | 10^−5 Molar |
| O=c1[nH]cc(F)c(=O)[nH]1 | 10^−6 Molar |
| Nc1ccn([C@@H]2O[C@H](CO)[C@@H](O)[C@@H]2O)c(=O)n1 | N |
| CC[C@@]1(O)C(=O)OCc2c1cc1n(c2=O)Cc2cc3ccccc3nc2-1 | N |
| Sc1ncnc2nc[nH]c12 | N |
| CN(Cc1cnc2nc(N)nc(N)c2n1)c1ccc(C(=O)N[C@@H](CCC(=O)O)C(=O)O)cc1 [methotrexate, Methotrexate] | 10^−6 Molar |
| Sc1ncc2[nH]cnc2n1 | N |
| Nc1ncnc2c1ccn2[C@@H]1O[C@H](CO)[C@@H](O)[C@H]1O | N |

Q) What does the data say about its Minimum Inhibitory Concentrations? Entry: O=C1c2c(O)ccc(O)c2C(=O)c2c(NCCNCCO)ccc(NCCNCCO)c21
A) 10^−6 Molar

Q) Give the measured Minimum Inhibitory Concentrations of COc1cccc2c1C(=O)c1c(O)c3c(c(O)c1C2=O)C[C@@](O)(C(=O)CO)C[C@@H]3O[C@H]1C[C@H](N)[C@H](O)[C@H](C)O1 .
A) 10^−6 Molar

Q) So what does the record say about Minimum Inhibitory Concentrations for NC(=O)NO [hydroxyurea] ?
A) N
